TEST DESCRIPTION: Second PK study: daily oral dose for 5 days, two formulations
Assay type: in vivo, female Swiss Albino mice
MEASUREMENT CONTEXT: female, Swiss Albino, mouse, plasma, po, 5 mg/kg, day 5, daily oral 5 mg/kg, Formulation 1, female mice
MEASURE NAME: Cmax (ng/mL)
One number for each entry, in ng/mL.

Quick one: Cmax of "COc1cc(N2CCNCC2)ccc1Nc1ncc2c(n1)-n1ccc(C(=O)Nc3c(C)cccc3C)c1CC2" ?
25.8

---

TEST DESCRIPTION: Second PK study: daily oral dose for 5 days, two formulations
Type: in vivo, female Swiss Albino mice
MEASUREMENT CONTEXT: female, Swiss Albino, mouse, plasma, po, 5 mg/kg, day 5, daily oral 5 mg/kg, Formulation 2, female mice, based on iv exposure; read-out: F (%)
MEASURE NAME: bioavailability (%)
Give bare numbers, in %.

Quick one: bioavailability of COc1cc(N2CCNCC2)ccc1Nc1ncc2c(n1)-n1ccc(C(=O)Nc3c(C)cccc3C)c1CC2 [compound of formula (I)] ?
41
